Values compiled from patent US10898481B2.

Provide the reported log10 of IC50 of each item.
target-system: mA2a/CHO (Mus musculus (Mouse), UniProt Q60613)
Sequence (Q60613 whole entry): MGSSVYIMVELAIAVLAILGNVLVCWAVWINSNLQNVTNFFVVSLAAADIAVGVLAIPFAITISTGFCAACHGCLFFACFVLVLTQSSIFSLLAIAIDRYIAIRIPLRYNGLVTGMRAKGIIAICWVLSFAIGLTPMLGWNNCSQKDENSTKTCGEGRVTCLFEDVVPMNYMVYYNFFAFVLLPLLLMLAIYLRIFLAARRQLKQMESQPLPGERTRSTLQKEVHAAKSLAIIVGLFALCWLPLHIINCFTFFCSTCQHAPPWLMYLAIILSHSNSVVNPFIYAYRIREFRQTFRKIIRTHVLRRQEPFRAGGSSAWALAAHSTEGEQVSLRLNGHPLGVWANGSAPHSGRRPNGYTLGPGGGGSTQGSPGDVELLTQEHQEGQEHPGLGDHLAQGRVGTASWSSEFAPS
test-protocol: cAMP inhibition assay in mA2a/CHO cells, 10 μM adenosine;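 further: compounds preincubated 30 min at 37 °C before the adenosine challenge, then 30 min further stimulation, readout after 60 min detection reagent incubation at room temperature in 384-well plates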
Format: cell-based
test-parameters: read-out: cAMP & FLIPR IC50 (nM) mA2a
log10 IC50, nM

log10 of IC50 lookup needed for Cc1cnc2ccc(-c3nc(C(=O)NCCN(C)c4ccccc4)c(N)nc3-c3ncco3)cn12 , thanks.
1.49

log10 of IC50 lookup needed for Cc1cnc2ccc(-c3nc(C(=O)NCCc4nccn4C)c(N)nc3-c3ncco3)cn12 , thanks.
0.88

log10 of IC50 lookup needed for Cn1cnc2ccc(-c3nc(C(=O)NCc4ncccc4OCCO)c(N)nc3-c3ccc(F)cc3)cc21 , thanks.
0.00

log10 of IC50 lookup needed for Nc1nc(-c2ncco2)c(-c2ccc3nccn3c2)nc1C(=O)NCc1cscn1 , thanks.
2.75

log10 of IC50 lookup needed for CO[C@H]1C[C@H](NC(=O)c2nc(-c3ccc4ncc(C)n4c3)c(-c3ncco3)nc2N)C1 , thanks.
1.08

log10 of IC50 lookup needed for Nc1cccc(CNC(=O)c2nc(-c3ccc4nccn4c3)c(-c3ncco3)nc2N)n1 , thanks.
2.41

log10 of IC50 lookup needed for COc1cccnc1CNC(=O)c1nc(-c2cc(C)nc(C)c2)c(-c2ccc(F)cc2)nc1N , thanks.
3.10

log10 of IC50 lookup needed for Cc1cnc2ccc(-c3nc(C(=O)NCC4(N(C)C)CC4)c(N)nc3-c3ccc(F)cc3)cn12 , thanks.
2.08
